SYSTEM NAME: α-glucosidase (Saccharomyces cerevisiae, UniProt P53341)
Sequence (P53341 whole entry): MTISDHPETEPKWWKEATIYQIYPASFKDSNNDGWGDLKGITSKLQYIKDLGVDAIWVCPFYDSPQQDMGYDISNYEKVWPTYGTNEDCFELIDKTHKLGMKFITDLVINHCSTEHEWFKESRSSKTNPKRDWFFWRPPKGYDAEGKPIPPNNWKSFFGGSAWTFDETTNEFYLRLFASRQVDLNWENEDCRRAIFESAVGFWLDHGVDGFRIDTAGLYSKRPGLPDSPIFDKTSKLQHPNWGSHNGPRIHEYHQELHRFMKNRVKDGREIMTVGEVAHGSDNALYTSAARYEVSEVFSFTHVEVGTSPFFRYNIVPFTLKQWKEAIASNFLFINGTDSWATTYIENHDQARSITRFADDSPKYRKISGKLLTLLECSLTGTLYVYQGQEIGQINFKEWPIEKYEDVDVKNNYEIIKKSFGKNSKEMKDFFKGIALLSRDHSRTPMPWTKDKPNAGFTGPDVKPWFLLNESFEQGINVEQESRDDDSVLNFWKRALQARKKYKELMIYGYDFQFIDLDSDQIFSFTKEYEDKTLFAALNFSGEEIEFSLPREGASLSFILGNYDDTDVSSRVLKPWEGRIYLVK
ASSAY SUMMARY: Enzyme kinetic studies (Lineweaver–Burk plot, secondary plot)
Format: biochemical

COMPOUND	Ki, µM
CCc1ccc(NC(=O)COc2ccc(C=NNC(=O)c3cc(-c4ccc(OC)cc4)nc4ccccc34)cc2OC)cc1 [11k]	25.6
